assayed-system: human Nav1.7 channels stably expressed in HEK 293 cells (Homo sapiens)
Sequence (Q15858 whole entry): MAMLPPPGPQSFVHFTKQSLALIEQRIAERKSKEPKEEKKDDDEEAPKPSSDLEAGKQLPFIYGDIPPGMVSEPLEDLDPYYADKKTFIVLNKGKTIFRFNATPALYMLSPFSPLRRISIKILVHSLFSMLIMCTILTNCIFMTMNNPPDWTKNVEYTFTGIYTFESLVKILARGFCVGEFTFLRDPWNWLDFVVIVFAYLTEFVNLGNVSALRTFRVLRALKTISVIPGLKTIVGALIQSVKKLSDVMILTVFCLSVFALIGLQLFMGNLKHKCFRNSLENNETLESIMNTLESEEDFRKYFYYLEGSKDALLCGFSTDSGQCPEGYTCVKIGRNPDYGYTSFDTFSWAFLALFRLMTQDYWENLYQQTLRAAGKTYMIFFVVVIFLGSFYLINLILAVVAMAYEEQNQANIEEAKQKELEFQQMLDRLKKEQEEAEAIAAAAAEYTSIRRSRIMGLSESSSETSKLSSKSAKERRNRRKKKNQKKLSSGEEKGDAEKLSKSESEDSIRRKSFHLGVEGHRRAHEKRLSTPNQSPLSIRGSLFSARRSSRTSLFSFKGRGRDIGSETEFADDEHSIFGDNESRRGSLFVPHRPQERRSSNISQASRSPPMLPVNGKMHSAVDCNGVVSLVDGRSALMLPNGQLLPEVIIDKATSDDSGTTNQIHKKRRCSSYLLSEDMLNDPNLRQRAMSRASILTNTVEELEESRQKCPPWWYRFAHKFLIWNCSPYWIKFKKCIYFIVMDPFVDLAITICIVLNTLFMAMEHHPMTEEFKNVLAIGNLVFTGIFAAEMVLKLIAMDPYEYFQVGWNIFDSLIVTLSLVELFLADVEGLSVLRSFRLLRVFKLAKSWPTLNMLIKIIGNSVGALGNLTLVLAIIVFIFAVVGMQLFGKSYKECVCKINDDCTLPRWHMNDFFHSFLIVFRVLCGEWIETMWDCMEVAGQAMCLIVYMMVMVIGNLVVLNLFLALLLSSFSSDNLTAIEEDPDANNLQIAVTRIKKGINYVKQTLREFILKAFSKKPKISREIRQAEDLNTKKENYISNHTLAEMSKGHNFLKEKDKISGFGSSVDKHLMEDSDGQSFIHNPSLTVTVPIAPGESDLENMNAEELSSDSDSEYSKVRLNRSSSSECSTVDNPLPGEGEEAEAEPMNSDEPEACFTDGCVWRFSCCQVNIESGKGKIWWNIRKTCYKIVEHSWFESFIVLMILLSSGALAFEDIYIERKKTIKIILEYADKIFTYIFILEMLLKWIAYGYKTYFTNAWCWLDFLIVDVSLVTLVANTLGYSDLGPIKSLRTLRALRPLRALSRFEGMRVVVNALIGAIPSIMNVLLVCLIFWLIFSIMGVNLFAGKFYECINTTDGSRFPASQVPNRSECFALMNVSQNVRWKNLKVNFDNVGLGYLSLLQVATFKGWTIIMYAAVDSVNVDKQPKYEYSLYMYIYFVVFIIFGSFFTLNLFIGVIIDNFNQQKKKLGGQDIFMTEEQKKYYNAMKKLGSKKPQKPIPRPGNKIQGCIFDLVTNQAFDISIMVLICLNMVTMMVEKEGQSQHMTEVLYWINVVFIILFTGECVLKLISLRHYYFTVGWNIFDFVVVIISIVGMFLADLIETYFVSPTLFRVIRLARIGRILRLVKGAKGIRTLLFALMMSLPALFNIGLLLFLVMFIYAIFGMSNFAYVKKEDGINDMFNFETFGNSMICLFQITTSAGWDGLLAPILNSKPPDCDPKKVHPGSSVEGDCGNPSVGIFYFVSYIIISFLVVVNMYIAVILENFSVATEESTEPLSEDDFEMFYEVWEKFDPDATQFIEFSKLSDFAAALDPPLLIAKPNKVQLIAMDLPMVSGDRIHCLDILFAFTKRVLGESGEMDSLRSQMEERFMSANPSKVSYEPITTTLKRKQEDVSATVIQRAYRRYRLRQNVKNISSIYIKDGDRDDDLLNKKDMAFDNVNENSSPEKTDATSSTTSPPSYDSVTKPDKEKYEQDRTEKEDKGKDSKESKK
assay-summary: IonWorks Quattro automated patch-clamp, state-dependent inhibition of Nav1.7
condition-notes: inactivated state block, double-pulse protocol, holding -100 mV, read-out: potency for the Nav 1.7 sodium ion channel (as measured by IonWorks)
recorded-metric: IC50 (nM)

molecule | recorded-metric | quantity-unit | readout-value
O=S(=O)(Nc1ncc(F)s1)c1cc(Cl)c(NCCCCNC[C@H]2C[C@@H](O)CN2)cc1F [EX 2-23] | IC50 | nM | 23

I: NCC1(O)CN(CCCCNc2cc(F)c(S(=O)(=O)Nc3ncns3)cc2Br)C1 [EX 1-11]
II: O=S(=O)(Nc1ncns1)c1cc(Br)c(NCCCCN[C@@H]2CNC[C@H]2O)cc1F [EX 2-44]
III: O=S(=O)(Nc1ncns1)c1cc(Cl)c(NCCCCNCC2(O)CNC2)cc1F [EX 2-1]
[in] List these items ordered by IC50, big to small. Please write the labels in the order that was asked for.
[out] II, III, I

====

Overview of recorded ratio of Nav1.7 potency:Nav 1.5 potency for various compounds
assayed-system: human Nav1.5 channels stably expressed in HEK 293 cells (Homo sapiens, UniProt Q14524)
Construct: expressed in transfected cells
Sequence (Q14524 whole entry): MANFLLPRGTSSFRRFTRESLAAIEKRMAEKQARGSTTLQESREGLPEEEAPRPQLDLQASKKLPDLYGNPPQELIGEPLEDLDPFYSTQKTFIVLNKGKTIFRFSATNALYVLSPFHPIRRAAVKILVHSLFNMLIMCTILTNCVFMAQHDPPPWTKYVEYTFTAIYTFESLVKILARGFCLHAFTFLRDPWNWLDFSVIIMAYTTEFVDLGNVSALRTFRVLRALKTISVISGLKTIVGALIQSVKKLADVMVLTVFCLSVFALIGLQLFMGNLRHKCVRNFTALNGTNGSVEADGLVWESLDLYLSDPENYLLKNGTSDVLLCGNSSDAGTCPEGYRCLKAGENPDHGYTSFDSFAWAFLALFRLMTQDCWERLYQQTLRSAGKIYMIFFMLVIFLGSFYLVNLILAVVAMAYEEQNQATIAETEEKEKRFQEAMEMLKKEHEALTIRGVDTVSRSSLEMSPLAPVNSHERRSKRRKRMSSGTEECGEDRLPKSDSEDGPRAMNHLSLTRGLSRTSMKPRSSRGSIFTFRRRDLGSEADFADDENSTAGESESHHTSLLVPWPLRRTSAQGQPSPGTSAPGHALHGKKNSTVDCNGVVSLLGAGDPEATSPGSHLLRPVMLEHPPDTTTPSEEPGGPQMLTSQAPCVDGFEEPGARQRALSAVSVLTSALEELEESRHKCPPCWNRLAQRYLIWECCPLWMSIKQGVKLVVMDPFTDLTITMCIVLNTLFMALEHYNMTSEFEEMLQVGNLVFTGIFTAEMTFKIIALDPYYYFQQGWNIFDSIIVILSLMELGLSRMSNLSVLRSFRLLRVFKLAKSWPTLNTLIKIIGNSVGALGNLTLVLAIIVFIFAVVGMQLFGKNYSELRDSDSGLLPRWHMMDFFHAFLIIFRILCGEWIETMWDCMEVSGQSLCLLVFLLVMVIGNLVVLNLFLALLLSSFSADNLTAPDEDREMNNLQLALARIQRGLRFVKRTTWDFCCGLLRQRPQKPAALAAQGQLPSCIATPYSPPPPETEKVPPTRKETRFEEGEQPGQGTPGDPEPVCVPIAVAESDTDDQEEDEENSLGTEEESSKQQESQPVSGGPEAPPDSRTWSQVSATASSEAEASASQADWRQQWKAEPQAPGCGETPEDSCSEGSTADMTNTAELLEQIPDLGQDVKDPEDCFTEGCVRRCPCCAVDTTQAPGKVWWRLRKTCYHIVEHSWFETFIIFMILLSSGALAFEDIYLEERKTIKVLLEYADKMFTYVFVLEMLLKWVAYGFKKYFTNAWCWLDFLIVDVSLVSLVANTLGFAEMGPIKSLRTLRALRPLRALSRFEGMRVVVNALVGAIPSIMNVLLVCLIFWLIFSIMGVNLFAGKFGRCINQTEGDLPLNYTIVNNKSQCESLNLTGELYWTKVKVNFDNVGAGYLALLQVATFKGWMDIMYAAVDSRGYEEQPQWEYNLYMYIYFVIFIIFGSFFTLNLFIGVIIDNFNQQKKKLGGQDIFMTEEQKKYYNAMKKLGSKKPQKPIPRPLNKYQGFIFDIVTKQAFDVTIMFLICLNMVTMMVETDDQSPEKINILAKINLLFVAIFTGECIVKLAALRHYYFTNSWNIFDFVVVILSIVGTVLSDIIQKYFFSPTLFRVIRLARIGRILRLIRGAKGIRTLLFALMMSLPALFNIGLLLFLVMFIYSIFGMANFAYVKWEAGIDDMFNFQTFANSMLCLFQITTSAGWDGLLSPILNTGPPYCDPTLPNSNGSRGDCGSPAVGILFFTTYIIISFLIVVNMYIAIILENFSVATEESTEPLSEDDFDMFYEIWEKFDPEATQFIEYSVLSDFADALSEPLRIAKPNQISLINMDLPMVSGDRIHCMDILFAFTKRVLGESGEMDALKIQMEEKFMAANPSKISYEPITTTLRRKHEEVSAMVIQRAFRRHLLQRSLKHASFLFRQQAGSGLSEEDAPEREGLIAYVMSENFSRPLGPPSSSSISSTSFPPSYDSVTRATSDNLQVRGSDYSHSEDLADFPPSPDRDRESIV
assay-summary: IonWorks Quattro automated patch-clamp, Nav1.5 (selectivity ratio versus Nav1.7)
Format: cell-based
condition-notes: selectivity for Nav1.7 over Nav1.5, inactivated state block

Known ratio of Nav1.7 potency:Nav 1.5 potency results, listed for orientation:
compound | readout-value
CC1(O)CN[C@H](CNCCCCNc2cc(F)c(S(=O)(=O)Nc3nccs3)cc2Cl)C1 (stereo partly shown) [EX 3-1] | ≥ 330
NC[C@H](O)CNCCCCNc1cc(F)c(S(=O)(=O)Nc2ncns2)cc1Cl [EX 1-1] | ≥ 660
NCC(O)CNCCCCNc1cc(F)c(S(=O)(=O)Nc2ncc(F)s2)cc1Cl (single isomer, unassigned) [EX 2-18] | ≥ 1000
Cc1csc(NS(=O)(=O)c2cc(Cl)c(NCCCCNCC3(O)CNC3)cc2F)n1 [EX 1-9] | ≥ 600
O=S(=O)(Nc1ncc(F)s1)c1cc(Cl)c(NCCCCNC[C@@H]2C[C@@H](O)CN2)cc1F [EX 2-22] | ≥ 942
NC[C@H](CO)NCCCCNc1cc(F)c(S(=O)(=O)Nc2nccs2)cc1Cl [EX 2-39] | ≥ 550
Cc1cc(S(=O)(=O)Nc2ncc(F)s2)c(F)cc1NCCCCNCC1(O)CNC1 [EX 1-4] | ≥ 846
NCC1(O)CN(CCCCNc2cc(F)c(S(=O)(=O)Nc3ncns3)cc2Br)C1 [EX 1-11] | ≥ 5000
O=S(=O)(Nc1ncc(F)s1)c1cc(Cl)c(NCCCCNC[C@@H]2C[C@H](O)CN2)cc1F [EX 2-21] | ≥ 344
O=S(=O)(Nc1ncc(F)s1)c1cc(Cl)c(NCCCCN[C@H]2CNC[C@@H]2O)cc1F [EX 2-16] | ≥ 1031

[in] What does the record list as ratio of Nav1.7 potency:Nav 1.5 potency for NC[C@H](CO)NCCCCNc1cc(F)c(S(=O)(=O)Nc2ncns2)cc1Cl [EX 2-41] ?
[out] ≥ 655

[in] What does the record list as ratio of Nav1.7 potency:Nav 1.5 potency for O=S(=O)(Nc1ncns1)c1cc(Br)c(NCCCCN[C@@H]2CNC[C@H]2O)cc1F [EX 2-44] ?
[out] ≥ 1300

[in] What does the record list as ratio of Nav1.7 potency:Nav 1.5 potency for O=S(=O)(Nc1ncc(F)s1)c1cc(Cl)c(NCCCCNCC2(O)CNC2)cc1F [EX 2-6] ?
[out] ≥ 2357

[in] What does the record list as ratio of Nav1.7 potency:Nav 1.5 potency for O=S(=O)(Nc1ncns1)c1cc(Cl)c(NCCCCNCCNCCO)cc1F [EX 2-4] ?
[out] ≥ 943

[in] What does the record list as ratio of Nav1.7 potency:Nav 1.5 potency for O=S(=O)(Nc1ncc(F)s1)c1cc(Cl)c(NCCCCNCCNCCO)cc1F [EX 2-9] ?
[out] ≥ 1138

[in] What does the record list as ratio of Nav1.7 potency:Nav 1.5 potency for NC[C@H](O)CNCCCCNc1cc(F)c(S(=O)(=O)Nc2ncns2)cc1Br [EX 1-7] ?
[out] ≥ 4714

[in] What does the record list as ratio of Nav1.7 potency:Nav 1.5 potency for O=S(=O)(Nc1ncns1)c1cc(Cl)c(NCCCCNCC2(O)CNC2)cc1F [EX 2-1] ?
[out] ≥ 2063

[in] What does the record list as ratio of Nav1.7 potency:Nav 1.5 potency for NC[C@@H](CO)NCCCCNc1cc(F)c(S(=O)(=O)Nc2ncns2)cc1Cl [EX 2-37] ?
[out] ≥ 1222

[in] What does the record list as ratio of Nav1.7 potency:Nav 1.5 potency for NC[C@@H](CO)NCCCCNc1cc(F)c(S(=O)(=O)Nc2ncc(F)s2)cc1Cl [EX 2-36] ?
[out] ≥ 1375
